- Study Target: hCA II (Homo sapiens, UniProt P00918)
Endpoint Name: Ki (nM)

NS(=O)(=O)c1ccc(NN2C(=O)/C(=C3/C(=O)Nc4ccc(Cl)cc43)SC2=Nc2ccccc2)cc1 [5a] :: 246

A = COc1ccc2c(c1)/C(=C1/SC(=Nc3ccccc3)N(Nc3ccc(S(N)(=O)=O)cc3)C1=O)C(=O)N2 [5e]
B = NS(=O)(=O)c1ccc(NN2C(=O)/C(=C3/C(=O)Nc4c(Br)cccc43)SC2=Nc2ccccc2)cc1 [5i]
Hi, I'm comparing A with B and wondering which one has the bigger number for Ki. Any idea? Returns: label corresponding to the selected item.
B
(B: 17.8 nM, A: 9.6 nM)

====

System: hCA I (Homo sapiens) | Read-out: pKi
Sequence (P00915 whole entry): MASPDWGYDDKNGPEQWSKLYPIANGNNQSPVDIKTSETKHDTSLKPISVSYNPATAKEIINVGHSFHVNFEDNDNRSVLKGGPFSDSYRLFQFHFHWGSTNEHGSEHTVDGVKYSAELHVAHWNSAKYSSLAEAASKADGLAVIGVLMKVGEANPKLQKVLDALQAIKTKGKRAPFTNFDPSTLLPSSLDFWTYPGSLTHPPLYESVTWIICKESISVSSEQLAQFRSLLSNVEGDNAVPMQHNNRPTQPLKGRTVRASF
pKi: −log10 of the molar value.
Endpoint Name: pKi

NS(=O)(=O)c1ccc(NN2C(=O)/C(=C3/C(=O)Nc4c(F)cccc43)SC2=Nc2ccccc2)cc1 :: 5.18
NS(=O)(=O)c1ccc(NN2C(=O)/C(=C3/C(=O)Nc4ccc(Cl)cc43)SC2=Nc2ccccc2)cc1 :: 5.34

1 = COc1ccc2c(c1)/C(=C1/SC(=Nc3ccccc3)N(Nc3ccc(S(N)(=O)=O)cc3)C1=O)C(=O)N2
2 = NS(=O)(=O)c1ccc(NN2C(=O)/C(=C3/C(=O)Nc4ccccc43)SC2=Nc2ccccc2)cc1
Hi, I'm comparing 1 with 2 and wondering which one has the bigger number for pKi. Any idea? Returns: label corresponding to the selected item.
2
(2: 5.28, 1: 5.04)

====

System: UniProtKB Q16790 | Read-out: Ki
Endpoint Name: Ki (nM)

Some molecules with recorded Ki:
NS(=O)(=O)c1ccc(NN2C(=O)/C(=C3/C(=O)Nc4ccc(Cl)cc43)SC2=Nc2ccccc2)cc1 :: 99.4
NS(=O)(=O)c1ccc(NN2C(=O)/C(=C3/C(=O)Nc4ccc(F)cc43)SC2=Nc2ccccc2)cc1 :: 23.1
COc1ccc2c(c1)/C(=C1/SC(=Nc3ccccc3)N(Nc3ccc(S(N)(=O)=O)cc3)C1=O)C(=O)N2 :: 5

I = NS(=O)(=O)c1ccc(NN2C(=O)/C(=C3/C(=O)Nc4ccc(Br)cc43)SC2=Nc2ccccc2)cc1
II = Cc1ccc2c(c1)/C(=C1/SC(=Nc3ccccc3)N(Nc3ccc(S(N)(=O)=O)cc3)C1=O)C(=O)N2
Hi, I'm comparing I with II and wondering which one has the bigger number for Ki. Any idea? Returns: label corresponding to the selected item.
I
(I: 87.4 nM, II: 14.9 nM)

The reported measurements were obtained from paper PMC11433937.
